Papp A→B at 90 min, 10 μM: recorded values
Assay: in vitro
Details: human, Caco-2, pH 7.4
Procedure: Example 37: Caco-2 Permeability Assay The goal of this assay was to evaluate the intestinal absorption potential of drug candidates using Caco-2 cell lines. HBSS buffer with 0.3% DMSO and 5 μM LY: add 150 μL DMSO and 50 μL LY (5 mM) into 50 ml HBSS buffer (pH 7.4). HBSS buffer with 0.1% DMSO and 5 μM LY: add 50 μL DMSO and 50 μL LY (5 mM) into 50 mL HBSS buffer (pH 7.4). […] 1. Papp values were calculated based on calculated concentrations. […]
PROPERTY: Papp A→B at 90 min, 10 μM

Cc1cccnc1[C@@H]1CCC[C@H](c2nccn2CCn2cccn2)N1 : 10 to 30 ×10⁻⁶ cm/s
Cc1ccnc([C@@H]2CCC[C@H](c3nc4cccc(N5CCN(C)CC5)c4[nH]3)N2C)c1C : 0.1 to 10 ×10⁻⁶ cm/s
CC(C)c1cccnc1[C@@H]1CCC[C@H](c2nc3cccc(N4CCN(C)CC4)c3[nH]2)N1C : 10 to 30 ×10⁻⁶ cm/s
Clc1cccnc1[C@@H]1CCC[C@H](c2nc3cccc(N4CCN(C5CC5)CC4)c3[nH]2)N1 : 10 to 30 ×10⁻⁶ cm/s
COc1ccnc([C@@H]2CCC[C@H](c3nc4cccc(N5CCN(C)CC5)c4[nH]3)N2C)c1C : 0.1 to 10 ×10⁻⁶ cm/s
Cc1cccnc1[C@@H]1CCC[C@H](c2nc3ccccc3n2CCn2cccn2)N1C : 10 to 30 ×10⁻⁶ cm/s
CN1CCN(c2cccc3nc([C@H]4CCC[C@@H](c5ncccc5Cl)N4)[nH]c23)CC1 (racemic) : 10 to 30 ×10⁻⁶ cm/s
CN1CCC(n2c([C@H]3CCC[C@@H](c4ncccc4Cl)N3)nc3ccccc32)CC1 : 10 to 30 ×10⁻⁶ cm/s
Cc1ccnnc1[C@@H]1CCC[C@H](c2nc3cccc(N4CCN(C)CC4)c3[nH]2)N1C : 0.1 to 10 ×10⁻⁶ cm/s
Cc1cccnc1[C@@H]1CCC[C@H](c2nc3ccccc3n2CCCNC2CCOCC2)N1C : 0.1 to 10 ×10⁻⁶ cm/s
Cc1cccnc1[C@@H]1CCC[C@H](c2nc3cccc(N4CCN(C)CC4)c3[nH]2)N1C (racemic) [I-3] : 0.1 to 10 ×10⁻⁶ cm/s
Cc1cccnc1[C@@H]1CCC[C@H](c2nc3cccc(OC4CCN(C(C)C)CC4)c3[nH]2)N1C : 0.1 to 10 ×10⁻⁶ cm/s
Cc1cccnc1[C@@H]1CCC[C@H](c2nc3cccc(N4CCC(N(C)C)CC4)c3[nH]2)N1C : 0.1 to 10 ×10⁻⁶ cm/s
Cc1cc(F)cnc1[C@@H]1CCC[C@H](c2nccn2C2CCN(C)CC2)N1 : 10 to 30 ×10⁻⁶ cm/s
Cc1cccnc1[C@@H]1CCC[C@H](c2nc3c(Br)ccc(Br)c3n2CC2CCN(C)CC2)N1C : 0.1 to 10 ×10⁻⁶ cm/s
Cc1cccnc1[C@@H]1CCC[C@H](c2nc3cccc(C4CCN(C)CC4)c3[nH]2)N1C : 0.1 to 10 ×10⁻⁶ cm/s
Cc1cccnc1[C@@H]1CCC[C@H](c2ncc[nH]2)N1Cc1ccccc1-n1cccn1 : 10 to 30 ×10⁻⁶ cm/s
Cc1cccnc1[C@@H]1CCC[C@H](c2nccn2CCc2ccccn2)N1 : 10 to 30 ×10⁻⁶ cm/s
CN1CC2CCC(C1)N2c1cccc2nc([C@H]3CCC[C@@H](c4ncccc4Cl)N3)[nH]c12 : 10 to 30 ×10⁻⁶ cm/s
Cc1cccnc1[C@@H]1CCC[C@H](c2nccn2C2CCN(C)CC2)N1 : 0.1 to 10 ×10⁻⁶ cm/s
Cc1cccnc1[C@@H]1CCC[C@H](c2nc3ccccc3n2CC2CCN(C)CC2)N1CC(F)(F)F : 10 to 30 ×10⁻⁶ cm/s
CC(C)N1CCN(c2cccc3nc([C@H]4CCC[C@@H](c5ncccc5Cl)N4)[nH]c23)CC1 : 10 to 30 ×10⁻⁶ cm/s
Cc1cccnc1[C@@H]1CCC[C@H](c2nc3cccc(N4C5CCC4CN(C)C5)c3[nH]2)N1 : 10 to 30 ×10⁻⁶ cm/s
CN1CCN(c2cccc3nc([C@H]4CCC[C@@H](c5ncccc5Cl)N4C)[nH]c23)CC1 : 10 to 30 ×10⁻⁶ cm/s
Cc1cccnc1[C@@H]1CCC[C@H](c2nc3ccccc3n2CCCN2CCC(F)(F)CC2)N1C : 0.1 to 10 ×10⁻⁶ cm/s
Cc1cccnc1[C@@H]1CCC[C@H](c2nc3ccccc3n2CC2CCN(C)CC2)N1C : 0.1 to 10 ×10⁻⁶ cm/s
Cc1cccnc1[C@@H]1CCC[C@H](c2nc3ccccc3n2CC2CCN(C(C)C)CC2)N1C : 0.1 to 10 ×10⁻⁶ cm/s
Cc1cccnc1[C@@H]1CCC[C@H](c2nc3cccc(N4CCN(C)CC4)c3n2C)N1 : 0.1 to 10 ×10⁻⁶ cm/s
Cc1cccnc1[C@@H]1CCC[C@H](c2nc3cccc(N4CC5CC(C4)N5C)c3[nH]2)N1C : 0.1 to 10 ×10⁻⁶ cm/s
CN1CCC(n2ccnc2[C@H]2CCC[C@@H](c3ncccc3Cl)N2)CC1 : 10 to 30 ×10⁻⁶ cm/s
Cc1cccnc1[C@@H]1CCC[C@H](c2nc3cccc(N4CCN(C(C)C)CC4)c3[nH]2)N1C : 10 to 30 ×10⁻⁶ cm/s
CCc1cccnc1[C@@H]1CCC[C@H](c2nc3cccc(N4CCN(C)CC4)c3[nH]2)N1C : 10 to 30 ×10⁻⁶ cm/s
Cc1cccnc1[C@@H]1CCC[C@H](c2nc3cccc(C4CCN(C)CC4)c3[nH]2)N1 : 0.1 to 10 ×10⁻⁶ cm/s
CN1CCN(c2cccc3nc([C@H]4CCC[C@@H](c5ncccc5OC(F)(F)F)N4C)[nH]c23)CC1 : 10 to 30 ×10⁻⁶ cm/s
